Reference source: ChEMBL document CHEMBL4145460

In this section we review reported IC50 values for a set of compounds.
- assayed_target: Receptor-type tyrosine-protein phosphatase F (Homo sapiens, UniProt P10586)
- Sequence (P10586 whole entry, the tested form may be a part): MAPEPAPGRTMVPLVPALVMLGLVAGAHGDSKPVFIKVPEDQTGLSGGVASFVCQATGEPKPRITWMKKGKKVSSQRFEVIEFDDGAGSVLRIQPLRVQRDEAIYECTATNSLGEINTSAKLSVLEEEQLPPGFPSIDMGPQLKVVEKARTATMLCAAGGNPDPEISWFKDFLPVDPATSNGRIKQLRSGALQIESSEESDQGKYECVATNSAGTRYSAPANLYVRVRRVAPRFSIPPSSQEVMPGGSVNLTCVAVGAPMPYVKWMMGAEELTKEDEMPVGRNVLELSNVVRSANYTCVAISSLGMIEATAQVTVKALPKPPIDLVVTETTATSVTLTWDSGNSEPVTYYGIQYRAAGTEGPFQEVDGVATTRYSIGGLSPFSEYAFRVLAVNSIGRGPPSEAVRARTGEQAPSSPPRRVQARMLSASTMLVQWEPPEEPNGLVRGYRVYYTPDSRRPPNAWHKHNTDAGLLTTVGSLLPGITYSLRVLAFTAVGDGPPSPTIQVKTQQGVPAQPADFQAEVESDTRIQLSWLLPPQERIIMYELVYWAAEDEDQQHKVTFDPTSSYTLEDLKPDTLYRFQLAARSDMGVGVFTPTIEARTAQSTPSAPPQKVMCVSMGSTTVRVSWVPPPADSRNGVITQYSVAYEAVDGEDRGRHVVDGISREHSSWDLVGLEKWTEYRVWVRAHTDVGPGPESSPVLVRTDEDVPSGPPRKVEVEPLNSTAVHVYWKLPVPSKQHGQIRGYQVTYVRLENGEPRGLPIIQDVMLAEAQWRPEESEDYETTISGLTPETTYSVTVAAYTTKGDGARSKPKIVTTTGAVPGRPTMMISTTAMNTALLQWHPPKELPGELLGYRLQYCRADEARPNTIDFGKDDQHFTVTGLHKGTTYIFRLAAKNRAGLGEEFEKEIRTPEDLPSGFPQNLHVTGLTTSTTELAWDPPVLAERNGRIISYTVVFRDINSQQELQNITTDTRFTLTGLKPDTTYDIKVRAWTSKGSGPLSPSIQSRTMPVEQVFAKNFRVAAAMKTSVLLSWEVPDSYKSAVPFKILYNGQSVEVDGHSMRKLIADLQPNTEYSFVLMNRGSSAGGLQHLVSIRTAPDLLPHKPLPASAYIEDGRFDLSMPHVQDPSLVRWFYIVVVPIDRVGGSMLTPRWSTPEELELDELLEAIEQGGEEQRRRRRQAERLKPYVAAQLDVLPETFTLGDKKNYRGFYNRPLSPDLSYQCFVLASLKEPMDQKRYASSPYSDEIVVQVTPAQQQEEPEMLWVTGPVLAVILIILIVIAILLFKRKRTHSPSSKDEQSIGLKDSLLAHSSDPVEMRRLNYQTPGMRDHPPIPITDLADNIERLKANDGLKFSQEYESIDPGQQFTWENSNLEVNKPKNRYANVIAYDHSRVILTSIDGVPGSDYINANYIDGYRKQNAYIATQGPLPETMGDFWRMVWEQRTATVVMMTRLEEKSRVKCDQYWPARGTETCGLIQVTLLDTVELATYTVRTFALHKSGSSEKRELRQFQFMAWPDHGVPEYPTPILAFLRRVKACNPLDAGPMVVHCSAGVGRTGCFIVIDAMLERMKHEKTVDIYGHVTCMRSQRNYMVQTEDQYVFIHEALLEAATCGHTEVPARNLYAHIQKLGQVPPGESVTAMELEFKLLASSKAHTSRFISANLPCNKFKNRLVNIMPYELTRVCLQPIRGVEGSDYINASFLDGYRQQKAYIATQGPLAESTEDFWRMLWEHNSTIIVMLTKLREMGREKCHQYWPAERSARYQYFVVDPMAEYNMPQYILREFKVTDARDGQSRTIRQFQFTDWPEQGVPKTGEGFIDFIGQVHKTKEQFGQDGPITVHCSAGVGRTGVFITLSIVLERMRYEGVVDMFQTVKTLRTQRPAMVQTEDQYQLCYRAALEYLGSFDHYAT
- method_notes: Inhibition of human GST-tagged LAR D1 (1275 to 1613 residues) expressed in Escherichia coli BL21-CondenPlus (DE3) using pNNP as substrate
Quick note: number first, unit second.

Some entries whose results are on file:
>  <smiles_repr>
CCOc1cc(NS(C)(=O)=O)c(OCC)cc1CNC(=O)Nc1ccc(OCC)c(C(=O)OC)c1

>  <IC50>
5.36 µM

$$$$
>  <smiles_repr>
CCOc1cc(NS(C)(=O)=O)c(OCC)cc1CNC(=O)Nc1ccc(OCC)c(C(=O)Nc2ccc(C)cc2)c1

>  <IC50>
6.95 µM

$$$$

Shifting focus to the compound that follows.
Req: Item: `CCOc1cc(NS(C)(=O)=O)c(OCC)cc1CNC(=O)Nc1ccc(OCC)c(C(=O)Nc2ccc(OC)c(OC)c2)c1` Test system: Receptor-type tyrosine-protein phosphatase F (Homo sapiens, UniProt P10586) Read-out: IC50 Value: ?
Resp: 7.34 µM

---

- Species: Homo sapiens
- method_notes: Selective ratio of IC50 for human TCPTP to IC50 for recombinant human PTP1B
recorded_endpoint: Ratio IC50
Please give the numeric answer without any surrounding text.

>  <smiles_repr>
CCOc1cc(NS(C)(=O)=O)c(OCC)cc1CNC(=O)Nc1ccc(OCC)c(C(=O)NC)c1

>  <recorded_endpoint>
Ratio IC50

>  <recorded_number>
45.9

$$$$
>  <smiles_repr>
CCOc1cc(NS(C)(=O)=O)c(OCC)cc1CNC(=O)Nc1ccc(OCC)c(C(=O)Nc2ccc(C)cc2)c1

>  <recorded_endpoint>
Ratio IC50

>  <recorded_number>
4.1

$$$$

Proceed to the following item.
Req: Query (molecule): `CCOc1cc(NS(C)(=O)=O)c(OCC)cc1CNC(=O)Nc1ccc(OCC)c(C(=O)Nc2ccc(OC)c(OC)c2)c1` ; field requested: Ratio IC50
Resp: 5.9
